Data provenance is PubChem BioAssay AID652043.

Assay Comment: canonical NF-kB pathway blockers in HEK293 – cell-based, flow cytometry, eGFP/dsRED, dry powder, selectivity assay for LMP1 NF-kB inhibitor project, dose response (AID 652043)
Measurement Conditions: HEK293 TNFa-induced NF-kB eGFP reporter, flow cytometry, 16 h; at 19.5 µM (top of the series)
Calls of active or inactive are those of the source.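 Rule for the calls: active = fitted curve drops below -35% activity change at a concentration within twice the highest valid tested dose; inactive = activity opposite to the expected direction, or the rest.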
Endpoint Name: activity change, negative = inhibition

Answered cases to consult:
CN(C)c1ccc2c(c1)[C@@H]1C[C@@H](CC(=O)NCC3CC3)O[C@@H](CO)[C@@H]1O2 -0.472% (inactive)
CN(C)c1ccc2c(c1)[C@@H]1C[C@@H](CC(=O)NCc3ccncc3)O[C@@H](CO)[C@@H]1O2 0.09% (inactive)

According to the records, this compound CCNC(=O)C[C@H]1CC[C@@H]2[C@H](COc3ccc(NC(=O)c4cc(C)on4)cc3C(=O)N2C)O1 displays activity change, negative = inhibition of -0.229% (inactive)

Looking up CN(C)c1ccc2c(c1)[C@@H]1C[C@@H](CC(=O)NCc3ccc(Oc4ccccc4)cc3)O[C@@H](CO)[C@@H]1O2 , I found its activity change, negative = inhibition recorded as -5.55% (inactive)

Noted for CN(C)c1ccc2c(c1)[C@@H]1C[C@@H](CC(=O)NCc3ccccn3)O[C@@H](CO)[C@@H]1O2 : its activity change, negative = inhibition reads -11.4% (inactive)
